Each record here notes measured recovery at 1 h, 10 µM.
Assay: in vitro
Format: in vitro ADME, canine
Settings: dog, MDCK, pH 7.4, wild type MDCK; read-out: Recovery B>A Mean
Write the value in % as a bare number.

COMPOUND	recovery at 1 h, 10 µM / %
Oc1ccc(-c2csc3nc(-c4ccccc4)nn23)c(O)c1 [compound 3]	49
CC(C)NCC(O)COc1cccc2ccccc12 (stereo not drawn) [Propranolol, reference compound]	80.5

Here's the next entry for you.
Please fill in: recovery at 1 h, 10 µM reported for Cn1c(C(=O)N[C@@H](C(=O)O)c2ccccc2)cc2cc(F)ccc21 [compound 5] = 83.5

* * *

Test system: MDR1 (P-glycoprotein)
Test: in vitro
Assay type: in vitro ADME, canine
Details: dog, MDCK-MDR1, pH 7.4, Papp B>A n=2, MDR1 MDCK
READOUT TYPE: Papp B→A at 1 h, 10 µM (×10⁻⁶ cm/s)
Express the result in ×10⁻⁶ cm/s but write the number alone.

Recorded result, CC(C)NCC(O)COc1cccc2ccccc12 (stereo not drawn) [Propranolol, reference compound] , Papp B→A at 1 h, 10 µM: 37

Papp B→A at 1 h, 10 µM recorded for this molecule, CC(CSc1ccc(Cl)cc1)C(=O)O (stereo not drawn) , is 32

Query CC[C@]1(O)C[C@@H]2CN(CCc3c([nH]c4ccccc34)[C@@](C(=O)OC)(c3cc4c(cc3OC)N(C)[C@H]3[C@@](O)(C(=O)OC)[C@H](OC(C)=O)[C@]5(CC)C=CCN6CC[C@]43[C@@H]65)C2)C1 [Vinblastine, reference compound] yields Papp B→A at 1 h, 10 µM of 20

# molecule Oc1ccc(-c2csc3nc(-c4ccccc4)nn23)c(O)c1 ; its Papp B→A at 1 h, 10 µM = 5

Reported Papp B→A at 1 h, 10 µM of Cn1c(C(=O)N[C@@H](C(=O)O)c2ccccc2)cc2cc(F)ccc21 : 2.1

# molecule Cc1cc2c(c(C)c1Cl)N(CC(=O)O)C(=O)CO2 ; its Papp B→A at 1 h, 10 µM = 2.4

* * *

Assay: in vitro
Assay type: in vitro ADME, canine
Settings: dog, MDCK, pH 7.4, Papp A>B n=2, wild type MDCK
READOUT TYPE: Papp A→B at 1 h, 10 µM (×10⁻⁶ cm/s)
Hi! Could you send only the number? It should be in ×10⁻⁶ cm/s, unit omitted.

The cases that follow already have their Papp A→B at 1 h, 10 µM on record.
COMPOUND	UNITS	Papp A→B at 1 h, 10 µM
CC(CSc1ccc(Cl)cc1)C(=O)O (stereo not drawn)	×10⁻⁶ cm/s	41
CC(C)NCC(O)COc1cccc2ccccc12 (stereo not drawn) [Propranolol, reference compound]	×10⁻⁶ cm/s	57
Cn1c(C(=O)N[C@@H](C(=O)O)c2ccccc2)cc2cc(F)ccc21	×10⁻⁶ cm/s	2.1
Oc1ccc(-c2csc3nc(-c4ccccc4)nn23)c(O)c1	×10⁻⁶ cm/s	3.9

Sure, the documented Papp A→B at 1 h, 10 µM for Cc1cc2c(c(C)c1Cl)N(CC(=O)O)C(=O)CO2 is 11

* * *

Experiment: Kinetic solubility in PBS, pH 7.4 (2% DMSO)
Format: physicochemical
Settings: PBS with 2% DMSO, pH 7.4, aqueous buffer, kinetic from dmso stock, PBS, pH 7.4 (2% DMSO); read-out: Solubility n=2
READOUT TYPE: solubility at 2 h
Write down the value, and be sure its unit follows.

A selection of reference data follows.
MOLECULE	solubility at 2 h
Oc1ccc(-c2csc3nc(-c4ccccc4)nn23)c(O)c1 [compound 3]	65 µM
CC(CSc1ccc(Cl)cc1)C(=O)O (centres unmarked) [compound 6]	188 µM

Consider Cn1c(C(=O)N[C@@H](C(=O)O)c2ccccc2)cc2cc(F)ccc21 [compound 5] . Its measured solubility at 2 h is 183 µM

Lab note: Cc1cc2c(c(C)c1Cl)N(CC(=O)O)C(=O)CO2 [compound 1] gave solubility at 2 h of 194 µM

Measured solubility at 2 h of COC(=O)[C@H]1[C@H]2C[C@@H]3c4[nH]c5cc(OC)ccc5c4CCN3C[C@H]2C[C@@H](OC(=O)c2cc(OC)c(OC)c(OC)c2)[C@@H]1OC [Reserpine, reference compound] : 9 µM

* * *

Test system: MDR1 (P-glycoprotein)
Test: in vitro
Assay type: in vitro ADME, canine
Details: dog, MDCK-MDR1, pH 7.4, MDR1 MDCK; read-out: Recovery A>B n=2
# recovery at 1 h, 10 µM listing for each entry below
The reply should be a number in %, with the unit left off.

These solved cases illustrate the format of a correct answer.
COMPOUND	UNITS	recovery at 1 h, 10 µM
CC(C)NCC(O)COc1cccc2ccccc12 (stereo not drawn) [Propranolol, reference compound]	%	88
CC(CSc1ccc(Cl)cc1)C(=O)O (stereo not drawn)	%	96
Oc1ccc(-c2csc3nc(-c4ccccc4)nn23)c(O)c1	%	21
CC[C@]1(O)C[C@@H]2CN(CCc3c([nH]c4ccccc34)[C@@](C(=O)OC)(c3cc4c(cc3OC)N(C)[C@H]3[C@@](O)(C(=O)OC)[C@H](OC(C)=O)[C@]5(CC)C=CCN6CC[C@]43[C@@H]65)C2)C1 [Vinblastine, reference compound]	%	55
Cn1c(C(=O)N[C@@H](C(=O)O)c2ccccc2)cc2cc(F)ccc21	%	79

Next up:
Record Cc1cc2c(c(C)c1Cl)N(CC(=O)O)C(=O)CO2 / MDR1 (P-glycoprotein), recovery at 1 h, 10 µM recorded as 91

* * *

Assay: Rat brain penetration study
Type: in vivo, male Han Wistar rats
Conditions: male, Han Wistar, brain, intravenous, 5 mg free base/kg, 1b 5 mg/kg i.v., 60 min, single rats, read-out: In brain, prodrug 1b
READOUT TYPE: concentration at 60 min (ng/g)
Respond numerically; units are ng/g and should not be typed.

For CCOC(=O)CN1C(=O)COc2cc(C)c(Cl)c(C)c21 the compound record lists concentration at 60 min as 62

* * *

Assay: Rat brain penetration study
Format: in vivo, male Han Wistar rats
Conditions: male, Han Wistar, brain (unbound), intravenous, 5 mg free base/kg, 1b 5 mg/kg i.v., 5 min, single rats, read-out: Unbound brain, prodrug 1b
READOUT TYPE: concentration at 5 min (ng/g)
Unit ng/g implied. Number only.

Record summary for CCOC(=O)CN1C(=O)COc2cc(C)c(Cl)c(C)c21 : reported concentration at 5 min = 38

* * *

Each entry below carries its reported Papp A→B at 1 h, 10 µM.
System: MDR1 (P-glycoprotein)
Experiment: in vitro
Format: in vitro ADME, canine
Conditions: dog, MDCK-MDR1, pH 7.4, MDR1 MDCK; read-out: Papp A>B Mean
Give just the number in ×10⁻⁶ cm/s; leave the unit off.

MOLECULE	TARGET ENTITY	READOUT TYPE	NUMBER
CC(C)NCC(O)COc1cccc2ccccc12 (stereo not drawn) [Propranolol, reference compound]	MDR1 (P-glycoprotein)	Papp A→B at 1 h, 10 µM	52.5

// recorded Papp A→B at 1 h, 10 µM for Cc1cc2c(c(C)c1Cl)N(CC(=O)O)C(=O)CO2 : 16

Briefly, Papp A→B at 1 h, 10 µM measured for CC(CSc1ccc(Cl)cc1)C(=O)O (stereo not drawn) : 50.5

For Oc1ccc(-c2csc3nc(-c4ccccc4)nn23)c(O)c1 the molecule record lists Papp A→B at 1 h, 10 µM as 3.25

In plain terms, Cn1c(C(=O)N[C@@H](C(=O)O)c2ccccc2)cc2cc(F)ccc21 has a documented Papp A→B at 1 h, 10 µM of 2.6

* * *

Assay: in vitro
Format: in vitro ADME, canine
Details: dog, MDCK, pH 7.4, wild type MDCK; read-out: Recovery A>B n=1
Give 1 (yes) when the value for recovery at 1 h, 10 µM is at least 60%. Give 0 (no) when it is less.

Field: example entries. Status: answers known.
MOLECULE	LABEL
CC(CSc1ccc(Cl)cc1)C(=O)O (stereo not drawn) [compound 6]	0 (no)
CC[C@]1(O)C[C@@H]2CN(CCc3c([nH]c4ccccc34)[C@@](C(=O)OC)(c3cc4c(cc3OC)N(C)[C@H]3[C@@](O)(C(=O)OC)[C@H](OC(C)=O)[C@]5(CC)C=CCN6CC[C@]43[C@@H]65)C2)C1 [Vinblastine, reference compound]	0 (no)
Cc1cc2c(c(C)c1Cl)N(CC(=O)O)C(=O)CO2 [compound 1]	1 (yes)
Cn1c(C(=O)N[C@@H](C(=O)O)c2ccccc2)cc2cc(F)ccc21 [compound 5]	1 (yes)
CC(C)NCC(O)COc1cccc2ccccc12 (stereo not drawn) [Propranolol, reference compound]	1 (yes)

--- query ---
**Q:** # check: recovery at 1 h, 10 µM of Oc1ccc(-c2csc3nc(-c4ccccc4)nn23)c(O)c1 [compound 3] is greater than or equal to 60%
**A:** 0 (no)
